Experiment: Plasma exposure in rat 4-day oral dosing experiment
Type: in vivo
Details: male, rat, plasma, po, 30 mg/kg, Male, Day 3
attribute.measured: Tmax (h)
Enter your answer as a number in h; do not include the unit.

Which value of Tmax has been reported for `COc1cc(Nc2nc3n(n2)CCCC[C@H]3c2ccc(F)cc2)ccc1-n1cnc(Cl)c1` in the records?
3

---

Experiment: Plasma exposure in rat 4-day oral dosing experiment
Type: in vivo
Conditions: male, rat, plasma, po, 10 mg/kg, Male, Day 3; read-out: AUC (0–24 h)
attribute.measured: AUC(0-t) (µM·h)
Enter your answer as a number in µM·h; do not include the unit.

Which value of AUC(0-t) has been reported for `COc1cc(Nc2nc3n(n2)CCCC[C@H]3c2ccc(F)cc2)ccc1-n1cnc(Cl)c1` in the records?
17.5

---

Assay: Pharmacokinetics in male Sprague-Dawley rats
Format: in vivo
Settings: plasma, Rat, PO suspension 5 mg/kg
attribute.measured: AUC(0-t)
Units required after the number.

Which value of AUC(0-t) has been reported for COc1cc(Nc2nc3n(n2)CCCC[C@H]3c2ccc(F)cc2)ccc1-n1cnc(Cl)c1 [BMS-869780] in the records?
4 µM·h

---

Assay: Pharmacokinetics in male Sprague-Dawley rats
Format: in vivo
Settings: plasma, Rat, PO suspension 5 mg/kg
attribute.measured: Tmax (h)
Enter your answer as a number in h; do not include the unit.

Which value of Tmax has been reported for COc1cc(Nc2nc3n(n2)CCCC[C@H]3c2ccc(F)cc2)ccc1-n1cnc(Cl)c1 [BMS-869780] in the records?
3.3

---

Assay: Plasma exposure in rat 4-day oral dosing experiment
Assay type: in vivo
Details: female, rat, plasma, po, 10 mg/kg, Female, Day 3
attribute.measured: Tmax
Units required after the number.

Which value of Tmax has been reported for COc1cc(Nc2nc3n(n2)CCCC[C@H]3c2ccc(F)cc2)ccc1-n1cnc(Cl)c1 [BMS-869780] in the records?
5 h

---

System: brain Aβ1-42, brain Aβ1-40, plasma Aβ1-40
Assay: Rat intraperitoneal dose response, brain and plasma Aβ 5 hours after dosing
Format: in vivo
Settings: Rattus norvegicus; IP, 5 hours; read-out: concentration in plasma associated with 50% lowering of brain Aβ1-42
pIC50: −log10 of the molar value.
attribute.measured: pIC50

Which value of pIC50 has been reported for COc1cc(Nc2nc3n(n2)CCCC[C@H]3c2ccc(F)cc2)ccc1-n1cnc(Cl)c1 [BMS-869780] in the records?
~6.00

---

Assay: Pharmacokinetics in male beagle dogs
Type: in vivo
Details: plasma, Dog, PO suspension 5 mg/kg
attribute.measured: Tmax (h)
Enter your answer as a number in h; do not include the unit.

Which value of Tmax has been reported for `COc1cc(Nc2nc3n(n2)CCCC[C@H]3c2ccc(F)cc2)ccc1-n1cnc(Cl)c1` in the records?
1.7

---

Test: Pharmacokinetics in male cynomolgus monkeys
Format: in vivo
Settings: cynomolgus monkey, plasma, IV 1 mg/kg
attribute.measured: AUC(0-t) (µM·h)
Enter your answer as a number in µM·h; do not include the unit.

Which value of AUC(0-t) has been reported for `COc1cc(Nc2nc3n(n2)CCCC[C@H]3c2ccc(F)cc2)ccc1-n1cnc(Cl)c1` in the records?
2.63

---

Experiment: Rat time course PK/PD, oral dose, indirect response model
Assay type: in vivo
Conditions: female, Sprague-Dawley, plasma, oral, 10 mg/kg; rat, 1-compartment PK model
attribute.measured: k el (s⁻¹)
Enter your answer as a number in s⁻¹; do not include the unit.

Which value of k el has been reported for `COc1cc(Nc2nc3n(n2)CCCC[C@H]3c2ccc(F)cc2)ccc1-n1cnc(Cl)c1` in the records?
2.78e-05

---

Experiment: Pharmacokinetics in male beagle dogs
Assay type: in vivo
Conditions: plasma, Dog, IV 1 mg/kg
attribute.measured: clearance

Which value of clearance has been reported for `COc1cc(Nc2nc3n(n2)CCCC[C@H]3c2ccc(F)cc2)ccc1-n1cnc(Cl)c1` in the records?
5.7 mL/min/kg

---

Tested on: brain Aβ1-42
Experiment: Rat time course PK/PD, oral dose, indirect response model
Type: in vivo
Conditions: po; rat, PD model; read-out: IC50 (plasma concentration required for 50% inhibition of Aβ production)
attribute.measured: pIC50
// pIC50: -log10(molar conc.)

Request body: readout pIC50, system brain Aβ1-42, query `COc1cc(Nc2nc3n(n2)CCCC[C@H]3c2ccc(F)cc2)ccc1-n1cnc(Cl)c1` . Return the value.
5.72

---

Experiment: Plasma exposure in rat 4-day oral dosing experiment
Format: in vivo
Conditions: male, rat, plasma, po, 100 mg/kg, Male, Day 1
attribute.measured: Tmax
Units required after the number.

Which value of Tmax has been reported for `COc1cc(Nc2nc3n(n2)CCCC[C@H]3c2ccc(F)cc2)ccc1-n1cnc(Cl)c1` in the records?
19 h

---

System: brain Aβ1-42, brain Aβ1-40, plasma Aβ1-40
Assay: Rat intraperitoneal dose response, brain and plasma Aβ 5 hours after dosing
Type: in vivo
Settings: Rattus norvegicus, ip; four-parameter fit; 95% confidence interval 704–1264 nM; read-out: apparent IC50 (plasma concentration) for brain Aβ1-40
attribute.measured: pIC50
// pIC50: -log10(molar conc.)

Which value of pIC50 has been reported for `COc1cc(Nc2nc3n(n2)CCCC[C@H]3c2ccc(F)cc2)ccc1-n1cnc(Cl)c1` in the records?
6.03

---

Assay: Plasma exposure in rat 4-day oral dosing experiment
Assay type: in vivo
Settings: male, rat, plasma, po, 10 mg/kg, Male, Day 1; read-out: AUC (0–24 h)
attribute.measured: AUC(0-t) (µM·h)
Enter your answer as a number in µM·h; do not include the unit.

Which value of AUC(0-t) has been reported for COc1cc(Nc2nc3n(n2)CCCC[C@H]3c2ccc(F)cc2)ccc1-n1cnc(Cl)c1 [BMS-869780] in the records?
20.2

---

Test system: Aβ1-42 (H4-APPsw)
Experiment: Aβ1-42 time-resolved fluorescence immunoassay in H4-APPsw cell cultures
Type: cell-based, human
Settings: Homo sapiens; H4-APPsw cultures treated overnight
Description: H4-APPsw cell cultures were maintained on Dulbecco's modified Eagle's medium (DMEM) supplemented with L-glutamine (2 mM), fetal bovine serum (10%), and G418 (100 μg/mL). […] For expression of human presenilin-1 in MEF dKO cells, the full length human presenilin-1 cDNA open reading frame was cloned between the BamHI and XhoI sites of the vector pcDNA5/FRT (Invitrogen), placing presenilin-1 expression under the control of the CMV promoter. […]
Entries and their pIC50
// pIC50: -log10(molar conc.)

Field: example entries. Status: answers known.
molecule: C[C@H](NC(=O)[C@@H](O)c1cc(F)cc(F)c1)C(=O)N[C@@H]1C(=O)N(C)N=Cc2ccccc21 [BMS-433796, reference compound]
pIC50: 9.80

molecule: C[C@H](c1ccc(F)cc1CCCC(=O)O)N(c1cc(F)ccc1F)S(=O)(=O)c1ccc(Cl)cc1 [BMS-299897, reference compound]
pIC50: 9.33

Could you now look at the following molecule, please?
Request body: readout pIC50, system Aβ1-42 (H4-APPsw), query `COc1cc(Nc2nc3n(n2)CCCC[C@H]3c2ccc(F)cc2)ccc1-n1cnc(Cl)c1` . Return the value.
8.25

---

Assay: Plasma exposure in rat 4-day oral dosing experiment
Type: in vivo
Details: female, rat, plasma, po, 30 mg/kg, Female, Day 1; read-out: AUC (0–24 h)
attribute.measured: AUC(0-t) (µM·h)
Enter your answer as a number in µM·h; do not include the unit.

Which value of AUC(0-t) has been reported for `COc1cc(Nc2nc3n(n2)CCCC[C@H]3c2ccc(F)cc2)ccc1-n1cnc(Cl)c1` in the records?
152

---

Experiment: Plasma exposure in rat 4-day oral dosing experiment
Format: in vivo
Details: male, rat, plasma, po, 100 mg/kg, Male, Day 1; read-out: AUC (0–24 h)
attribute.measured: AUC(0-t)
Units required after the number.

Which value of AUC(0-t) has been reported for COc1cc(Nc2nc3n(n2)CCCC[C@H]3c2ccc(F)cc2)ccc1-n1cnc(Cl)c1 [BMS-869780] in the records?
168 µM·h

---

Test: Plasma exposure in rat 4-day oral dosing experiment
Type: in vivo
Settings: male, rat, plasma, po, 30 mg/kg, Male, Day 3
attribute.measured: Cmax (µM)
Enter your answer as a number in µM; do not include the unit.

Which value of Cmax has been reported for `COc1cc(Nc2nc3n(n2)CCCC[C@H]3c2ccc(F)cc2)ccc1-n1cnc(Cl)c1` in the records?
10.4

---

Test: Plasma exposure in rat 4-day oral dosing experiment
Format: in vivo
Conditions: male, rat, plasma, po, 30 mg/kg, Male, Day 1
attribute.measured: Tmax (h)
Enter your answer as a number in h; do not include the unit.

Which value of Tmax has been reported for `COc1cc(Nc2nc3n(n2)CCCC[C@H]3c2ccc(F)cc2)ccc1-n1cnc(Cl)c1` in the records?
8

Data provenance: paper PMC4109680
